Measured target: CAIX (Homo sapiens)
Assay: fluorescent thermal shift assay (FTSA), CAIX
Assay type: binding
For each of the compounds below, state its ΔGintr CAIX.
Record the value in kcal/mol, omitting the unit from your answer.

Q: Report measured ΔGintr CAIX; entry is COC(=O)c1cc(S(N)(=O)=O)c(Cl)cc1SCc1ccccc1 [Compound 5c]
Result: -15.3

Q: Quote ΔGintr CAIX reported for COC(=O)c1cc(S(N)(=O)=O)c(Cl)cc1Cl [Compound 1, Methyl 2,4-dichloro-5-sulfamoyl-benzoate] please.
Result: -13.7

Q: Given COC(=O)c1cc(S(N)(=O)=O)c(S(=O)(=O)Cc2ccccc2)cc1Cl [Compound 7c] , respond with its ΔGintr CAIX.
Result: -13.4

Q: Indicate the recorded ΔGintr CAIX value for this compound: COC(=O)c1cc(S(N)(=O)=O)c(SCc2ccccc2)cc1Cl [Compound 3c]
Result: -16.4

Q: Provide measured ΔGintr CAIX value, entry: COC(=O)c1cc(S(N)(=O)=O)c(SC2CCCCC2)cc1Br [Compound 4b]
Result: -18.5

Q: Using the record for COC(=O)c1cc(S(N)(=O)=O)c(Br)cc1Sc1ccccc1 [Compound 6a] , state its measured ΔGintr CAIX.
Result: -15.5

Q: Could you please provide reported ΔGintr CAIX for COC(=O)c1cc(S(N)(=O)=O)c(S(=O)(=O)CCc2ccccc2)cc1Cl [Compound 7d] ? Thanks!
Result: -12.1

Q: Input COC(=O)c1cc(S(N)(=O)=O)c(Br)cc1Br [Compound 2, Methyl 2,4-dibromo-5-sulfamoyl-benzoate] , output reported ΔGintr CAIX.
Result: -13.2

Q: Provide only the value of recorded ΔGintr CAIX for COC(=O)c1cc(S(N)(=O)=O)c(Cl)cc1Sc1ccccc1 [Compound 5a]
Result: -16.4

Q: Find the measured ΔGintr CAIX of COC(=O)c1cc(S(N)(=O)=O)c(SCCc2ccccc2)cc1Cl [Compound 3d] and report it.
Result: -15.7

Q: For the compound COC(=O)c1cc(S(N)(=O)=O)c(S(=O)(=O)C2CCCCC2)cc1Cl [Compound 7b] , give its reported ΔGintr CAIX.
Result: -11.9

Q: In one line, give reported ΔGintr CAIX of the entry COC(=O)c1cc(S(N)(=O)=O)c(Cl)cc1SCCc1ccccc1 [Compound 5d] .
Result: -15.3

Q: Please look at this compound and report its ΔGintr CAIX: COC(=O)c1cc(S(N)(=O)=O)c(SC2CCCCCCCCCCC2)cc1Cl [Compound 3e]
Result: -17.7

Q: Given the compound COC(=O)c1cc(S(N)(=O)=O)c(Cl)cc1Sc1cccc2ccccc12 [Compound 5f] , write its reported ΔGintr CAIX.
Result: -15.1

Q: Return ΔGintr CAIX for the following compound: COC(=O)c1cc(S(N)(=O)=O)c(Cl)cc1SC1CCCCC1 [Compound 5b]
Result: -15.7

Q: Recall and state the measured ΔGintr CAIX for COC(=O)c1cc(S(N)(=O)=O)c(SC2CCCCC2)cc1Cl [Compound 3b] .
Result: -17.9
